Hello, the source for this data is patent US20260069689A1, in case you need it.

# target_or_system: T1, SARS-CoV2 Spike ecto foldon Trimer expressed with a C-terminal myc-myc-hexahistidine (SARS-CoV-2, UniProt P0DTC2 14-1213)
# T1 construct: extracellular domain
# assay_name: SPR Biacore, mAb captured by anti-hFc, 25C
I'd appreciate it if you marked entries fulfilled when t½ is lower than 2 h and not fulfilled when it is not.

{"binder": "mAb14247 (antibody, V domains shown) VH: QITLKESGPTLVKPTQTLTLTCTFSGFSLSTSAVGVGWIRQPPGKALEWLALIYWDDDKRYSPSLKSRLTITKDTSKNQLVLTMTNVDPVDTATYYCAHHTIQLIFDYWGQGTLVTVSS VL: QSALTQPASVSGSPGQSITISCTATSSDVGNYNYVSWYQQHPGKAPKLMIYEVSNRPSGVSNRFSGSKSGNTASLTISGLQAEDEADYYCSSYTSSSTPLVFGGGTKLTVLG", "class": "not fulfilled"}
{"binder": "mAb14282 (antibody, V domains shown) VH: QVQLVQSGAEVKKPGASVKVSCKASGYIFTDHYMHWVRQAPGQGLEWMGWINPNSGATNYAQNFQGRVTMTRDTSIITVYMELSRLRSDDTAVYYCARDSSPYMIRYTMDVWGQGTTITVSS VL: QSALTQPASVSGSPGQSITISCTGTSSDVGSYNLVSWYQQHPGKAPKLMIYELTKRPSGVSNRFSGSKSGNTASLTISGLQAEDEADYYCSSYRGSVTDVVFGGGTKLTVLG", "class": "fulfilled"}
{"binder": "mAb14235 (antibody, V domains shown) VH: QITLKESGPTLVKPTQTLTLTCTFSGFSLNTGGVGVGWIRQPPGNALEWLALIYWDDDKRYNPSLKTRLTISKDTSKNQVVLTMTNMDPVDTATYFCAHLTIAVIVDFWGQGTLVTVSS VL: QSALTQPASVSGSPGQSITISCTATSSDVGTYNYVSWFQHHPGKAPKLMIYEVTNRPSGVSNRFSGSKSGNTASLTISGLQAEDEADYYCSSYTTTSIVFGGGTKLTVLG", "class": "not fulfilled"}
{"binder": "mAb14315 (antibody, V domains shown) VH: QVQLVQSGAEVKKPGSSVKVSCKASGDTFSTYAINWVRQAPGQGLEWMGRFIHIFGTANYAQKFQGRVTITADESTSTAYMELRSLRSEDTAVYYCARDGVDYGDYRPDYWGQGTLVTVSS VL: EIVLTQSPGTLSLSPGERATLSCRASQSVSSNYLAWYQQKPGQAPRLLIYGASSRATGIPERFSGSGSGTDFTLTISRLEPEDFAVYYCQQYGSSLYTFGQGTKLEIKR", "class": "not fulfilled"}
{"binder": "mAb15159 (antibody, V domains shown) VH: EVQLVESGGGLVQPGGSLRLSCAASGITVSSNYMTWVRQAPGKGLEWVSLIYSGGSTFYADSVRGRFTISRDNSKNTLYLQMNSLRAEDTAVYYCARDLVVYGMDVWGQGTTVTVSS VL: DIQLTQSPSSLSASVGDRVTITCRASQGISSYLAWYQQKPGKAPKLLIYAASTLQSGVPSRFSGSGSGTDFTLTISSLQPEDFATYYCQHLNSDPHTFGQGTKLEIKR", "class": "not fulfilled"}
{"binder": "mAb15157 (antibody, V domains shown) VH: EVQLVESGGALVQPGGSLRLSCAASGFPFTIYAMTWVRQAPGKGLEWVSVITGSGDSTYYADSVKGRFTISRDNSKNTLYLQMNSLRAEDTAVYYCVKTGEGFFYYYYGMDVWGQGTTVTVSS VL: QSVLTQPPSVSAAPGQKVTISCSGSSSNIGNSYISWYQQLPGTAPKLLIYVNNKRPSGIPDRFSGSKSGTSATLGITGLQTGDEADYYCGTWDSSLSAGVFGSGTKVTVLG", "class": "not fulfilled"}
{"binder": "mAb14255 (antibody, V domains shown) VH: QVQLQESGPGLVKPSETLSLTCTVSGGSISGYYWSWIRQPPGKGLDWIGYIYYRGNTNYNPSLKSRVTISVDTSNNQFSLKLSSVTAADTAVYYCARYGEGYGDASGYHFDYWGQGTLVTVSS VL: QSALTQPASVSGSPGQSITISCTGTSSDVGSYNLVSWYQQHPGKAPKLMIYEDSKRPSGVANPFSGSKSGNTASLTISGLQAEDEADYYCSSYAGSSTWVFGGGTKLTVLG", "class": "fulfilled"}
{"binder": "mAb14234 (antibody, V domains shown) VH: QVQLVESGGGVVQPGRSLRLSCAASGFTFSSYGIHWVRQAPGKGLEWVAIIWYDGSEKYYADSVKGRFTISRDNSKNTLFLQMNSLEAEDTAVYYCARGPDLLTGYYNYFYYGMDVWGQGTTVTVSS VL: QSVLTQPPSVSGAPGQRVTISCTGSSSNIGIGYDVHWYQQLPGTVPKLLIYGNTNRPSGVPDRFSGSKSGTSASLAITGLQAEDEADYYCQSYDSSLSSYVFGTGTKVTVLG", "class": "not fulfilled"}
{"binder": "mAb15170 (antibody, V domains shown) VH: EVQLVESGGGLVQPGGSLRLSCAATGITVSSNYMSWVRQAPGKGLEWVSLIYSGGSTFYADSVKGRFTISRHNSKNTLYLQMSSLRAEDTAVYYCARDLVDFGMDVWGQGTTVTVSS VL: DIQLTQSPSSLSASVGDRVTITCRASQGISNYLAWYQQKPGKAPKLLIYAASTLQSGVPSRFSGSGSGTDFTLTISSLQPEDFGTYYCQQLNSDSPTFGQGTKVEIKR", "class": "not fulfilled"}
{"binder": "mAb14256 (antibody, V domains shown) VH: QVQLQESGPGLVKPSETLSLTCTVSGGSISSHYWSWIRQPPGKGLEWIGYIYYSGSSNYNPSLKSRVTISVDTSKNQFSLKLNSVTAADTAVYYCARHYDILTGFDWFDPWGQGTLVTVSS VL: QSVLTQPPSVSGAPGQRVTISCTGSSSNIGTHYDVHWYQQLPGTAPKLLIYGNSNRPSGVPDRFSGSKSGTSASLAITGLQAEDEADYYCQSFDNSLTAPYVFGTGTKVTVLG", "class": "fulfilled"}
